B1: POU domain, class 2, transcription factor 1, residues 285 to 354; numbered along this chain, P14859 (parent)
chain: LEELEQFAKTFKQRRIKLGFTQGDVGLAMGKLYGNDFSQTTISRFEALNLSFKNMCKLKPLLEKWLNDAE

# Variants of: B1
# assay.summary: abundance fitness (aPCA) (normalised: wild type 0, dead -1); higher = more abundant; growth selection in yeast, the domain comes from the species named
# stated.conditions: Homo sapiens
reported.property: abundance fitness

sequence_input="LEELEQFAKTFKQRRIKLGFTQGDVGLAMGKLYGNDFSQTTISRFEALNLSFKNMCKLCPLLEKWLNDAE [K59C]" reported_property="abundance fitness" reported_result=-0.134
sequence_input="LEELEQFAKTFKQRRIKLGFTQGDVGLAMGKLYGNDFSQTTISRFEAFNLSFKNMCKLKPLLEKWLNDAE [L48F]" reported_property="abundance fitness" reported_result=-0.054
sequence_input="LEELEQFAKTFKQRRIQLGFTQGDVGLAMGKLYGNDFSQTTISRFEALNLSFKNMCKLKPLLEKWLNDAE [K17Q]" reported_property="abundance fitness" reported_result=-0.023
sequence_input="LEELEQFAKTFKQRRIKLGFTQGDVGLAMGKLYGNDFSQTTISRFIALNLSFKNMCKLKPLLEKWLNDAE [E46I]" reported_property="abundance fitness" reported_result=-0.84
sequence_input="LEELEQFAKTFKQRRIKLGFTQHDVGLAMGKLYGNDFSQTTISRFEALNLSFKNMCKLKPLLEKWLNDAE [G23H]" reported_property="abundance fitness" reported_result=0.013
sequence_input="LEELEQFAKTFKQRRIKLGFTQGDVGLAMGKLWGNDFSQTTISRFEALNLSFKNMCKLKPLLEKWLNDAE [Y33W]" reported_property="abundance fitness" reported_result=-0.122
sequence_input="LEELEQFAKTFKQSRIKLGFTQGDVGLAMGKLYGNDFSQTTISRFEALNLSFKNMCKLKPLLEKWLNDAE [R14S]" reported_property="abundance fitness" reported_result=-0.052
sequence_input="LEELEQFAKTFKQRRIKLGFTQGDVGLAMGKLYGNDFSQTTISRFEAKNLSFKNMCKLKPLLEKWLNDAE [L48K]" reported_property="abundance fitness" reported_result=0.084
sequence_input="LEELEQFAKTFKQRRIKLGFTQGDVGLAMGKLYGNDFSQTTISRFEALWLSFKNMCKLKPLLEKWLNDAE [N49W]" reported_property="abundance fitness" reported_result=-0.218
sequence_input="LEELEQFAKTFKQRSIKLGFTQGDVGLAMGKLYGNDFSQTTISRFEALNLSFKNMCKLKPLLEKWLNDAE [R15S]" reported_property="abundance fitness" reported_result=-0.974
sequence_input="LEELEQFAKTFKQRRIKLGFTQGLVGLAMGKLYGNDFSQTTISRFEALNLSFKNMCKLKPLLEKWLNDAE [D24L]" reported_property="abundance fitness" reported_result=-0.192
sequence_input="LEELEQFAKTFKQRRIKLGFTQGDVGLAMGKLYGNDFSQTTISRFEALYLSFKNMCKLKPLLEKWLNDAE [N49Y]" reported_property="abundance fitness" reported_result=-0.063
sequence_input="LEELEQFAKTFKQRRIKLGFFQGDVGLAMGKLYGNDFSQTTISRFEALNLSFKNMCKLKPLLEKWLNDAE [T21F]" reported_property="abundance fitness" reported_result=-0.693
sequence_input="LEELEQFAKTFKQRRIKLGFTQGDVGLAMGKLIGNDFSQTTISRFEALNLSFKNMCKLKPLLEKWLNDAE [Y33I]" reported_property="abundance fitness" reported_result=-0.019
sequence_input="LEELEQFAKTFKQRRIKLGFTQGDVGLAMGKLYGNDFSQTTISRFEALNLSDKNMCKLKPLLEKWLNDAE [F52D]" reported_property="abundance fitness" reported_result=0.007
sequence_input="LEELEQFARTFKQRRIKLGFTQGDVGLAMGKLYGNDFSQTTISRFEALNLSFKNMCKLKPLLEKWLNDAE [K9R]" reported_property="abundance fitness" reported_result=0.011
sequence_input="LEELEQFAKTFKQRRIKLGFTQGDVGLAMGKLYGNDFSLTTISRFEALNLSFKNMCKLKPLLEKWLNDAE [Q39L]" reported_property="abundance fitness" reported_result=-0.026
